Can you tell me viability, T/C for the items I'm about to list?
test system: 941728-121-R-J1-PDC complex spheroid viability; test: Anticancer human tumor 941728-121-R-J1-PDC patient-derived lung adenocarcinoma cell line growth inhibition [RAS]; settings: second compound 1 µM; first compound 1 µM; stronger effect = lower value
Reply numerically in %, unit not repeated.

Could you share what viability, T/C was measured for C[C@@H](NC(=O)c1ncnc(N)c1Cl)c1ncc(C(=O)Nc2cc(C(F)(F)F)c(Cl)cn2)s1 + C#Cc1c(F)ccc2cc(O)cc(-c3ncc4c(N5CC6CCC(C5)N6)nc(OCC56CCCN5CC(F)C6)nc4c3F)c12 , tested on 941728-121-R-J1-PDC complex spheroid viability?
39.4

Could you share what viability, T/C was measured for CC(=O)OC12COC1CC(O)C1(C)C(=O)C(O)C3=C(C)C(OC(=O)C(O)C(NC(=O)OC(C)(C)C)c4ccccc4)CC(O)(C(OC(=O)c4ccccc4)C21)C3(C)C (centres undefined) + C#Cc1c(F)ccc2cc(O)cc(-c3ncc4c(N5CC6CCC(C5)N6)nc(OCC56CCCN5CC(F)C6)nc4c3F)c12 , tested on 941728-121-R-J1-PDC complex spheroid viability?
24.6

Could you share what viability, T/C was measured for CC1(O)CCCC1n1c(=O)c(C(F)F)cc2cnc(NC3CCN(S(C)(=O)=O)CC3)nc21 (centres undefined) + C#Cc1c(F)ccc2cc(O)cc(-c3ncc4c(N5CC6CCC(C5)N6)nc(OCC56CCCN5CC(F)C6)nc4c3F)c12 , tested on 941728-121-R-J1-PDC complex spheroid viability?
50.3

Could you share what viability, T/C was measured for CC(Nc1ccc2c(c1)OCCn1cc(N3C(=O)OCC3C(F)F)nc1-2)C(N)=O (centres undefined) + C=CC(=O)N1CCN(c2nc(OCC3CCCN3C)nc3c(F)c(-c4nc(N)cc(C)c4C(F)(F)F)c(Cl)cc23)C(C)C1 , tested on 941728-121-R-J1-PDC complex spheroid viability?
13.4

---

tested on: 941728-121-R-J1-PDC complex spheroid viability; experiment: Anticancer human tumor 941728-121-R-J1-PDC cell line growth inhibition [RAS]; settings: second compound 0.00316 µM; first compound 0.01 µM; stronger effect = lower value;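 also: spheroids exposed to compounds for 7 days before readout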;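 as to viability, T/C: 100% = DMSO vehicle control viability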
Cut-off 20% on viability, T/C: below means T, at or above means F.

In plain terms, does C=CC(=O)Nc1cc(Nc2nccc(-c3cn(C)c4ccccc34)n2)c(OC)cc1N(C)CCN(C)C + C=CC(=O)N1CCN(c2nc(OCC3CCCN3C)nc3c(F)c(-c4nc(N)cc(C)c4C(F)(F)F)c(Cl)cc23)C(C)C1 come in under 20% for viability, T/C?
F

In plain terms, does CC(C)n1nc(-c2ccc3oc(N)nc3c2)c2c(N)ncnc21 + C=CC(=O)N1CCN(c2nc(OCC3CCCN3C)nc3c(F)c(-c4nc(N)cc(C)c4C(F)(F)F)c(Cl)cc23)C(C)C1 come in under 20% for viability, T/C?
T

In plain terms, does CCN1CCN(Cc2ccc(Nc3ncc(F)c(-c4cc(F)c5nc(C)n(C(C)C)c5c4)n3)nc2)CC1 + C=CC(=O)N1CCN(c2nc(OCC3CCCN3C)nc3c(F)c(-c4nc(N)cc(C)c4C(F)(F)F)c(Cl)cc23)C(C)C1 come in under 20% for viability, T/C?
T

In plain terms, does Nc1ccn(C2OC(CO)C(O)C2(F)F)c(=O)n1 (stereo not given) + C=CC(=O)N1CCN(c2nc(OCC3CCCN3C)nc3c(F)c(-c4nc(N)cc(C)c4C(F)(F)F)c(Cl)cc23)C(C)C1 come in under 20% for viability, T/C?
T

In plain terms, does O=C(c1ccc(F)c(F)c1Nc1ccc(I)cc1F)N1CC(O)([C@@H]2CCCCN2)C1 + C=CC(=O)N1CCN(c2nc(OCC3CCCN3C)nc3c(F)c(-c4nc(N)cc(C)c4C(F)(F)F)c(Cl)cc23)C(C)C1 come in under 20% for viability, T/C?
T

---

tested on: 941728-121-R-J1-PDC complex spheroid viability; assay: Anticancer human tumor 941728-121-R-J1-PDC cell line growth inhibition [RAS]; settings: curve of first compound; second compound 0.3 µM;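 also: spheroids exposed to compounds for 7 days before readout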
pIC50: −log10 of the molar value.
Can you tell me pIC50 for the items I'm about to list?

I am curious: what pIC50 value has been reported for C[C@@H](NC(=O)c1ncnc(N)c1Cl)c1ncc(C(=O)Nc2cc(C(F)(F)F)c(Cl)cn2)s1 + CCn1c(-c2cccnc2C(C)OC)c2c3cc(ccc31)N1CCOC(CC(NC(=O)C(C(C)C)N(C)C(=O)C3(F)CCN(C(=O)C#CC(C)(C)N(C)C)CC3)C(=O)N3CCCC(N3)C(=O)OCC(C)(C)C2)C1 ?
> 7.50

I am curious: what pIC50 value has been reported for CC1(O)CCCC1n1c(=O)c(C(F)F)cc2cnc(NC3CCN(S(C)(=O)=O)CC3)nc21 (stereo not drawn) + CCn1c(-c2cc(N3CCN(C)CC3)cnc2C(C)OC)c2c3cc(ccc31)-c1csc(n1)CC(NC(=O)C1CC1C)C(=O)N1CCCC(N1)C(=O)OCC(C)(C)C2 ?
> 7.50

I am curious: what pIC50 value has been reported for CC(C)n1nc(-c2ccc3oc(N)nc3c2)c2c(N)ncnc21 + CCn1c(-c2cc(N3CCN(C)CC3)cnc2C(C)OC)c2c3cc(ccc31)-c1csc(n1)CC(NC(=O)C1CC1C)C(=O)N1CCCC(N1)C(=O)OCC(C)(C)C2 ?
> 9.50

I am curious: what pIC50 value has been reported for CC1(C)CCC(Nc2ncc(C(F)(F)F)c(-c3c[nH]c4c(P(C)(C)=O)c(C#N)ccc34)n2)CN1 (stereo not drawn) + CCn1c(-c2cccnc2C(C)OC)c2c3cc(ccc31)N1CCOC(CC(NC(=O)C(C(C)C)N(C)C(=O)C3(F)CCN(C(=O)C#CC(C)(C)N(C)C)CC3)C(=O)N3CCCC(N3)C(=O)OCC(C)(C)C2)C1 ?
> 9.02

I am curious: what pIC50 value has been reported for CCN1CCN(Cc2ccc(Nc3ncc(F)c(-c4cc(F)c5nc(C)n(C(C)C)c5c4)n3)nc2)CC1 + CCn1c(-c2cc(N3CCN(C)CC3)cnc2C(C)OC)c2c3cc(ccc31)-c1csc(n1)CC(NC(=O)C1CC1C)C(=O)N1CCCC(N1)C(=O)OCC(C)(C)C2 ?
> 8.50

I am curious: what pIC50 value has been reported for NC1c2ccccc2OC12CCN(c1cnc3c(N4CCCc5ncccc54)n[nH]c3n1)CC2 (stereo not drawn) + CCn1c(-c2cccnc2C(C)OC)c2c3cc(ccc31)N1CCOC(CC(NC(=O)C(C(C)C)N(C)C(=O)C3(F)CCN(C(=O)C#CC(C)(C)N(C)C)CC3)C(=O)N3CCCC(N3)C(=O)OCC(C)(C)C2)C1 ?
> 7.50

I am curious: what pIC50 value has been reported for Cc1nc(N2CCC3(CC2)COC(C)C3N)c(CO)nc1Sc1ccnc(N)c1Cl (stereo not drawn) + CCn1c(-c2cccnc2C(C)OC)c2c3cc(ccc31)N1CCOC(CC(NC(=O)C(C(C)C)N(C)C(=O)C3(F)CCN(C(=O)C#CC(C)(C)N(C)C)CC3)C(=O)N3CCCC(N3)C(=O)OCC(C)(C)C2)C1 ?
> 7.50

I am curious: what pIC50 value has been reported for O=C(c1ccc(F)c(F)c1Nc1ccc(I)cc1F)N1CC(O)([C@@H]2CCCCN2)C1 + CCn1c(-c2cc(N3CCN(C)CC3)cnc2C(C)OC)c2c3cc(ccc31)-c1csc(n1)CC(NC(=O)C1CC1C)C(=O)N1CCCC(N1)C(=O)OCC(C)(C)C2 ?
> 8.50

---

test system: 941728-121-R-J1-PDC complex spheroid viability; test: Anticancer human tumor 941728-121-R-J1-PDC cell line growth inhibition [RAS]; conditions: curve of first compound; second compound 0.003 µM;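 also: spheroids exposed to compounds for 7 days before readout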
pIC50: −log10 of the molar value.
Can you tell me pIC50 for the items I'm about to list?

I am curious: what pIC50 value has been reported for C[C@@H](NC(=O)c1ncnc(N)c1Cl)c1ncc(C(=O)Nc2cc(C(F)(F)F)c(Cl)cn2)s1 + CCn1c(-c2cccnc2C(C)OC)c2c3cc(ccc31)N1CCOC(CC(NC(=O)C(C(C)C)N(C)C(=O)C3(F)CCN(C(=O)C#CC(C)(C)N(C)C)CC3)C(=O)N3CCCC(N3)C(=O)OCC(C)(C)C2)C1 ?
> 7.50

I am curious: what pIC50 value has been reported for CCN1CCN(Cc2ccc(Nc3ncc(F)c(-c4cc(F)c5nc(C)n(C(C)C)c5c4)n3)nc2)CC1 + CCn1c(-c2cc(N3CCN(C)CC3)cnc2C(C)OC)c2c3cc(ccc31)-c1csc(n1)CC(NC(=O)C1CC1C)C(=O)N1CCCC(N1)C(=O)OCC(C)(C)C2 ?
> 8.50

I am curious: what pIC50 value has been reported for CC1(O)CCCC1n1c(=O)c(C(F)F)cc2cnc(NC3CCN(S(C)(=O)=O)CC3)nc21 (centres undefined) + CCn1c(-c2cc(N3CCN(C)CC3)cnc2C(C)OC)c2c3cc(ccc31)-c1csc(n1)CC(NC(=O)C1CC1C)C(=O)N1CCCC(N1)C(=O)OCC(C)(C)C2 ?
> 7.50

I am curious: what pIC50 value has been reported for CCC(CC)c1cc(NC2CCC(N)C2)n2nccc2n1 (centres undefined) + CCn1c(-c2cc(N3CCN(C)CC3)cnc2C(C)OC)c2c3cc(ccc31)-c1csc(n1)CC(NC(=O)C1CC1C)C(=O)N1CCCC(N1)C(=O)OCC(C)(C)C2 ?
> 7.50

Reference source for all entries: PubChem BioAssay AID2060896
